Tested on: Human immunodeficiency virus 1
Assay comment: Selectivity ratio of EC50 for antiviral activity against HIV1 harboring E92V mutation in catalytic core domain of integrase to EC50 for antiviral activity against wild-type HIV1 3B
Format: functional
So basically, if Ratio EC50 comes in under 2 it's TRUE, and if it's 2 or more it's FALSE.

{"Smiles code": "O=C(NCc1ccc(F)cc1)c1nc(N2CCCCS2(=O)=O)c2cccnc2c1O", "Target of assay": "Human immunodeficiency virus 1", "Assigned class": "FALSE"}
{"Smiles code": "Nc1nc(=O)n([C@@H]2CS[C@H](CO)O2)cc1F", "Target of assay": "Human immunodeficiency virus 1", "Assigned class": "TRUE"}
{"Smiles code": "CN(c1c2c(c(O)c3ncccc13)C(=O)N(Cc1ccc(F)cc1)C2)S(C)(=O)=O", "Target of assay": "Human immunodeficiency virus 1", "Assigned class": "FALSE"}
{"Smiles code": "Cc1cccc(C)c1OCC(=O)N[C@@H](Cc1ccccc1)[C@@H](O)C[C@H](Cc1ccccc1)NC(=O)[C@H](C(C)C)N1CCCNC1=O", "Target of assay": "Human immunodeficiency virus 1", "Assigned class": "TRUE"}
{"Smiles code": "CC(C)c1nc(COC(N)=O)n(Cc2ccncc2)c1Sc1cc(Cl)cc(Cl)c1", "Target of assay": "Human immunodeficiency virus 1", "Assigned class": "FALSE"}

* * *

Attribute: Ratio EC50
Tested on: Human immunodeficiency virus 1
Assay comment: Selectivity ratio of EC50 for antiviral activity against APV-resistant HIV1 selected after 2 passages to EC50 for antiviral activity against wild-type HIV1 3B
Type: functional

{"Molecule": "CN(c1c2c(c(O)c3ncccc13)C(=O)N(Cc1ccc(F)cc1)C2)S(C)(=O)=O", "Ratio EC50": 1}
{"Molecule": "O=C(NCc1ccc(F)cc1)c1nc(N2CCCCS2(=O)=O)c2cccnc2c1O", "Ratio EC50": 2.5}
{"Molecule": "Nc1ccn([C@@H]2CS[C@H](CO)O2)c(=O)n1 [LAMIVUDINE]", "Ratio EC50": 7}
{"Molecule": "CC(C)CN(C[C@@H](O)[C@H](Cc1ccccc1)NC(=O)O[C@H]1CCOC1)S(=O)(=O)c1ccc(N)cc1", "Ratio EC50": 3.4}

* * *

Assay comment: Cytotoxicity against human T lymphocyte cells uninfected by XTT method in presence of 10% FBS
Measurement label: CC50 (µM)

{"Smiles code": "CN(c1c2c(c(O)c3ncccc13)C(=O)N(Cc1ccc(F)cc1)C2)S(C)(=O)=O", "Measurement label": "CC50", "Unit abbreviation": "µM", "Measured": 4}
{"Smiles code": "O=C(NCc1ccc(F)cc1)c1nc(N2CCCCS2(=O)=O)c2cccnc2c1O", "Measurement label": "CC50", "Unit abbreviation": "µM", "Measured": 2.1}
{"Smiles code": "COc1cc2c(cc1Cc1cccc(Cl)c1F)c(=O)c(C(=O)O)cn2[C@@H](CO)C(C)C", "Measurement label": "CC50", "Unit abbreviation": "µM", "Measured": 40}

* * *

Assay comment: in vitro
Condition label: human, MT2 cells
Description: Selectivity index, ratio of CC50 for human MT2 cells to EC50 for HIV1 3B in presence of 10% FBS
Attribute: selectivity ratio

{"Smiles code": "CN(c1c2c(c(O)c3ncccc13)C(=O)N(Cc1ccc(F)cc1)C2)S(C)(=O)=O", "selectivity ratio": 1900}
{"Smiles code": "O=C(NCc1ccc(F)cc1)c1nc(N2CCCCS2(=O)=O)c2cccnc2c1O", "selectivity ratio": 1500}

These entries and their values trace back to ChEMBL document CHEMBL1629647.
